measurement target: TRα-LBD/RXRα (Homo sapiens, UniProt P10827)
Construct: TRα-LBD (Invitrogen, PV4762), or TRβ-LBD (Invitrogen, PV4764) with a GST tag were used; purchased Invitrogen (TRα-LBD); Pharmaron (RXRα) PV4762
Sequence (P10827 1-410 isoform P10827-2, other chains not shown): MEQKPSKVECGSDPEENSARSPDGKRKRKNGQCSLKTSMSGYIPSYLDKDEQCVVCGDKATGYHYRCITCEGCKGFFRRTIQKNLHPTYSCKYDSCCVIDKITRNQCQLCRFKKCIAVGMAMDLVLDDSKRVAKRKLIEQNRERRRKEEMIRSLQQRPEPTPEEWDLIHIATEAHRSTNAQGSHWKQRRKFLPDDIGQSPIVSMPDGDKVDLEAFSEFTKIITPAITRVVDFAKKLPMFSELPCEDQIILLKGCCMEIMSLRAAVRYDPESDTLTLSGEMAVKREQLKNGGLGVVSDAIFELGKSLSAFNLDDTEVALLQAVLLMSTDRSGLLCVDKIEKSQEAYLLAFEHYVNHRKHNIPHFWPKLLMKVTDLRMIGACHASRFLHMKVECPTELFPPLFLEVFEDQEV
Sequence (P19793 whole entry partner, other chains not shown, the tested form may be a part): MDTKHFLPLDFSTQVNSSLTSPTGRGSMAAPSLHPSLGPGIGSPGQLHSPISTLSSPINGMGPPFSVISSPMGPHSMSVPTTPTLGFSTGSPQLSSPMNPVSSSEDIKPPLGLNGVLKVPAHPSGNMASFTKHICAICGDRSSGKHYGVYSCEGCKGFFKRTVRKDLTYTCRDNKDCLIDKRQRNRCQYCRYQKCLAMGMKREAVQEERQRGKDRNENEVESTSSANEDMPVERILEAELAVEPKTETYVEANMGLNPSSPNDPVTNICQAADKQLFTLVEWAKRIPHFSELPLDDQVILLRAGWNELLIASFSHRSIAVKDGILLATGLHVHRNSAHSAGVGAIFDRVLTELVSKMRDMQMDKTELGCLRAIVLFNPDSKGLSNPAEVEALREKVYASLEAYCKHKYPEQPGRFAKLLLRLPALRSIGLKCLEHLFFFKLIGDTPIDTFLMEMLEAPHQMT
assay comment: In vitro binding experiment (TR-FRET SRC2-2 co-activator peptide recruitment), TRα
Type: biochemical
test conditions: 4 h incubation at room temperature
assay endpoint: EC50 (µM)

Illustrative cases are given below, each with its answer.
CC(C)c1nc(Oc2c(Cl)cc(-c3noc(=O)[nH]3)cc2Cl)ncc1O = 0.573
CC(C)c1nc(Sc2c(Cl)cc(-n3nc(C#N)c(=O)[nH]c3=O)cc2Cl)ncc1O = 0.385

P = N#Cc1nn(-c2cc(Cl)c(Oc3ncc(O)c(Cc4ccc(F)cc4)n3)c(Cl)c2)c(=O)[nH]c1=O
Q = [2H]C([2H])([2H])C(c1nc(Oc2c(Cl)cc(-n3nc(C#N)c(=O)[nH]c3=O)cc2Cl)ncc1O)C([2H])([2H])[2H]
Prompt: Could you tell me which of these two has the smaller EC50 figure? First: P Second: Q Respond with the label that goes with your answer.
Response: Q
